// values below are reported EC50
- SYSTEM UNDER TEST: T1, mouse B7-H4 on the cell surface (mouse, UniProt Q7TSP5 25-257)
- T1 construct: full-length, on transfected HEK293T cells
- T1 sequence: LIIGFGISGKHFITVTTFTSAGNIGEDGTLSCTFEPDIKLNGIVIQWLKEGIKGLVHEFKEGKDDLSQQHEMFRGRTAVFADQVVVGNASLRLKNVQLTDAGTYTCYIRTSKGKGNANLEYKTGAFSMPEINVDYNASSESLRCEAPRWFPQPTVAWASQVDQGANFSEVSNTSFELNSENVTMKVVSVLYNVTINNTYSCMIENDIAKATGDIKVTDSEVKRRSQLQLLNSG
- ASSAY INFO: flow cytometry, transfected 293 cells
REPORTED PROPERTY: EC50 (nM)

• B7-H4 antibody 20502.1 (antibody, human IgG1, kappa, V domains shown, human IgG1/kappa) VH: QLQLQESGPGLVKPSETLSLTCTVSGGSIKSGSYYWGWIRQPPGKGLEWIGNIYYSGSTYYNPSLKSRVTISVDTSKNQFSLKLSSVTAADTAVYYCAREGSYPNQFDPWGQGILVTVSS VL: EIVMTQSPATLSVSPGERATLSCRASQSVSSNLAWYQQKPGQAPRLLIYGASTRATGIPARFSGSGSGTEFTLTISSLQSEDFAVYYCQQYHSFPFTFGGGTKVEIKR = 5.57
• B7-H4 antibody 15461 (antibody, human IgG1, kappa, V domains shown, human IgG1/kappa) VH: QLQLQESGPGLVKPSETLSLTCTVSGGSISSSSYYWGWIRQPPGKGLEWIGNIYYSGSTYYNPSLKSRVTISVDTSKNQFSLKLSSVTAADTAVYYCAREGSYPNWFDPWGQGTLVTVSS VL: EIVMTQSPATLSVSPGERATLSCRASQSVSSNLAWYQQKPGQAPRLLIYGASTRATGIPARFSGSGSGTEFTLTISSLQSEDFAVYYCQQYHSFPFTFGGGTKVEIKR = 6.37
